Target: human liver GK (Homo sapiens, UniProt P35557)
Construct: GST (glutathione S-transferase) (N)
Sequence (P35557 1-466 isoform P35557-2): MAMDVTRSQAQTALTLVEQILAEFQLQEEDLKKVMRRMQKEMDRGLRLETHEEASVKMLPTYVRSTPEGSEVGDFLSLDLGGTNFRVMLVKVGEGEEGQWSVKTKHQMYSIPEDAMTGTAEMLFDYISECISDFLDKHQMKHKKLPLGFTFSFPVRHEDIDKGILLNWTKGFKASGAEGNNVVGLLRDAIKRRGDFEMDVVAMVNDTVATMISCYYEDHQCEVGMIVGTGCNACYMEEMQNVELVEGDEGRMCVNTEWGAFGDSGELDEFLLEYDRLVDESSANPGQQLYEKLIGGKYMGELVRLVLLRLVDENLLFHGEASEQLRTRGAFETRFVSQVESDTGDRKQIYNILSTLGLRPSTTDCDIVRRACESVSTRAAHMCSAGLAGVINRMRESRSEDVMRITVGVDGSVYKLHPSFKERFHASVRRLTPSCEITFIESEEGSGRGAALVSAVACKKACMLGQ
Assay: GK activation test
Settings: test compound concentration needed to activate 50% of maximum activation ability; 4 mM 14C-labeled glucose, 2 mM ATP, room temperature, 20 minutes
MEASURED METRIC: EC50

[
  {
    "COMPOUND": "O=C1CC[C@H](/C=C(\\c2ccc(F)cc2)c2ccc(C3CC3)c(=O)[nH]2)N1",
    "MEASURED METRIC": "EC50",
    "REPORTED VALUE": "500 to 3000 nM"
  },
  {
    "COMPOUND": "Cn1cc(-c2ccc(/C(=C/[C@H]3CCC(=O)N3)c3ccc(C(C)(C)C)cc3)[nH]c2=O)cn1",
    "MEASURED METRIC": "EC50",
    "REPORTED VALUE": "10 to 500 nM"
  },
  {
    "COMPOUND": "CCCOc1ccc(/C(=C\\[C@H]2CCC(=O)N2)c2ccc(C3CC3)c(=O)[nH]2)cc1",
    "MEASURED METRIC": "EC50",
    "REPORTED VALUE": "10 to 500 nM"
  },
  {
    "COMPOUND": "O=C1CC[C@H](/C=C(/c2ccc(C3CC3)c(=O)[nH]2)c2ccc(Cl)cc2F)N1",
    "MEASURED METRIC": "EC50",
    "REPORTED VALUE": "10 to 500 nM"
  },
  {
    "COMPOUND": "O=C1CC[C@H](/C=C(\\c2ccc(-c3ccccc3)cc2)c2ccc(Cl)c(=O)[nH]2)N1",
    "MEASURED METRIC": "EC50",
    "REPORTED VALUE": "500 to 3000 nM"
  },
  {
    "COMPOUND": "CCc1cc(/C(=C\\[C@H]2CCC(=O)N2)c2ccc(C3CC3)c(=O)[nH]2)ccc1Cl",
    "MEASURED METRIC": "EC50",
    "REPORTED VALUE": "10 to 500 nM"
  },
  {
    "COMPOUND": "COc1ccc(/C(=C\\C2CCOCC2)c2ccc(C3CC3)c(=O)[nH]2)cc1Cl",
    "MEASURED METRIC": "EC50",
    "REPORTED VALUE": "500 to 3000 nM"
  },
  {
    "COMPOUND": "Cc1ccc(/C(=N/OC2CCCC2)c2ccc(S(C)(=O)=O)cc2)[nH]c1=O",
    "MEASURED METRIC": "EC50",
    "REPORTED VALUE": "3000 to 10000 nM"
  },
  {
    "COMPOUND": "Cn1ccc(=O)n(C/C=C(\\c2ccc(C(C)(C)C)cc2)c2ccc(Cl)c(=O)[nH]2)c1=O",
    "MEASURED METRIC": "EC50",
    "REPORTED VALUE": "500 to 3000 nM"
  },
  {
    "COMPOUND": "CN1CCN(S(=O)(=O)c2ccc(C(CC3CCCC3)c3ccc(Cl)c(=O)[nH]3)cc2)CC1 (stereo not shown)",
    "MEASURED METRIC": "EC50",
    "REPORTED VALUE": "3000 to 10000 nM"
  },
  {
    "COMPOUND": "O=C1CC[C@H](CC(c2ccc(C3CC3)cc2)c2ccc(Cl)c(=O)[nH]2)N1 (single isomer, unassigned) [Example 4-316]",
    "MEASURED METRIC": "EC50",
    "REPORTED VALUE": "3000 to 10000 nM"
  },
  {
    "COMPOUND": "CC(C)c1ccc(/C(=C\\CN2CCOC2=O)c2ccc(Cl)c(=O)[nH]2)cc1",
    "MEASURED METRIC": "EC50",
    "REPORTED VALUE": "500 to 3000 nM"
  },
  {
    "COMPOUND": "Cc1cc(/C(=C\\[C@H]2CCC(=O)N2)c2ccc(Cl)c(=O)[nH]2)ccc1S(=O)(=O)C1CC1",
    "MEASURED METRIC": "EC50",
    "REPORTED VALUE": "10 to 500 nM"
  },
  {
    "COMPOUND": "CC(C)(C)c1ccc(C(=C[C@H]2CCC(=O)N2)c2ccc(C3(O)CCC3)c(=O)[nH]2)cc1",
    "MEASURED METRIC": "EC50",
    "REPORTED VALUE": "3000 to 10000 nM"
  },
  {
    "COMPOUND": "CCS(=O)(=O)c1ccc(/C(=C\\C2CCCC2)c2ccc(C)c(=O)[nH]2)cc1",
    "MEASURED METRIC": "EC50",
    "REPORTED VALUE": "10 to 500 nM"
  },
  {
    "COMPOUND": "CCOc1ccc(/C(=C\\[C@H]2CCC(=O)N2)c2ccc(Cl)c(=O)[nH]2)cc1F",
    "MEASURED METRIC": "EC50",
    "REPORTED VALUE": "500 to 3000 nM"
  }
]

* * *

Target: human liver GK (Homo sapiens, UniProt P35557)
Construct: GST (glutathione S-transferase) (N)
Assay: GK activation test
Conditions: test compound concentration needed to activate 50% of maximum activation ability; 4 mM 14C-labeled glucose, 2 mM ATP, room temperature, 20 minutes
Protocol: The GK activation test for the test compounds was performed by the method of Irwin A. Rose et al. (J. Biol. Chem. 1964 January; 239:12-7) with partial modifications. […] After 20 minutes, AG1-X4 resin (BioRad) suspended in 25 mM Hepes-KOH (pH=7.1) was added and the reaction product, labeled glucose 6-phosphate, was allowed to bind thereto. […] The labeling activity of the eluted labeled glucose 6-phosphate was measured as an index of GK activity. […]
pEC50: −log10 of the molar value.

[
  {
    "COMPOUND": "CC(C)(C)c1ccc(/C(=C\\[C@H]2CCC(=O)N2)c2ccc(Cc3ccccc3)c(=O)[nH]2)cc1 [Example 4-205]",
    "pEC50": "6.30 to 8.00"
  },
  {
    "COMPOUND": "CC(C)(C)c1ccc(C(C[C@H]2CCN(C(=O)C3CC3)C2)c2ccc(Cl)c(=O)[nH]2)cc1 (single isomer, unassigned) [Example 4-96]",
    "pEC50": "6.30 to 8.00"
  },
  {
    "COMPOUND": "O=C1CC[C@H](CC(c2ccc(F)c(Cl)c2)c2ccc(C3CC3)c(=O)[nH]2)N1 (single isomer, unassigned) [Example 4-211]",
    "pEC50": "5.52 to 6.30"
  },
  {
    "COMPOUND": "Cc1ccc(C(CC2CCCC2)c2ccc(S(=O)(=O)C3CC3)cc2)[nH]c1=O (stereo not shown) [Example 2-3]",
    "pEC50": "6.30 to 8.00"
  },
  {
    "COMPOUND": "O=C1CC[C@H](/C=C(\\c2cccc(C(F)(F)F)c2)c2ccc(Cl)c(=O)[nH]2)N1 [Example 4-261]",
    "pEC50": "5.00 to 5.52"
  },
  {
    "COMPOUND": "CC(C)(C)c1ccc(C(C[C@H]2CCC(=O)N2)c2ccc(Cl)c(=O)[nH]2)cc1 (single isomer, unassigned) [Example 4-69]",
    "pEC50": "5.00 to 5.52"
  },
  {
    "COMPOUND": "O=c1[nH]c(/C(=C/C2CCOCC2)c2ccc(S(=O)(=O)C3CC3)cc2)ccc1Cl [Example 1-110]",
    "pEC50": "5.52 to 6.30"
  }
]

* * *

Target: human liver GK (Homo sapiens)
Construct: GST (glutathione S-transferase) (N)
Assay: GK activation test
Conditions: test compound concentration needed to activate 50% of maximum activation ability; 4 mM 14C-labeled glucose, 2 mM ATP, room temperature, 20 minutes
pEC50: −log10 of the molar value.

[
  {
    "COMPOUND": "CSc1ccc(/C(=C\\C2CCOC2)c2ccc(C3CC3)c(=O)[nH]2)cc1 (centres unmarked)",
    "pEC50": "6.30 to 8.00"
  },
  {
    "COMPOUND": "CN1CCN(C/C=C(\\c2ccc(C(C)(C)C)cc2)c2ccc(Cl)c(=O)[nH]2)C1=O",
    "pEC50": "6.30 to 8.00"
  },
  {
    "COMPOUND": "COc1cc(F)c(C(C[C@H]2CCC(=O)N2)c2ccc(C3CC3)c(=O)[nH]2)cc1Cl (single isomer, unassigned) [Example 4-347]",
    "pEC50": "5.00 to 5.52"
  },
  {
    "COMPOUND": "CCOc1ccc(C(C[C@H]2CCC(=O)N2)c2ccc(C3CC3)c(=O)[nH]2)cc1F (single isomer, unassigned)",
    "pEC50": "5.52 to 6.30"
  },
  {
    "COMPOUND": "CCOc1ccc(/C(=C\\[C@H]2CCC(=O)N2)c2ccc(Cl)c(=O)[nH]2)cc1",
    "pEC50": "5.52 to 6.30"
  },
  {
    "COMPOUND": "CCc1ccc(C(C[C@H]2CCC(=O)N2)c2ccc(C3CC3)c(=O)[nH]2)cc1Cl (single isomer, unassigned) [Example 4-337]",
    "pEC50": "5.52 to 6.30"
  },
  {
    "COMPOUND": "CC(C)(C)c1ccc(/C(=C\\N2CCCC2=O)c2ccc(Cl)c(=O)[nH]2)cc1",
    "pEC50": "5.52 to 6.30"
  },
  {
    "COMPOUND": "Cc1ccc(C(CC2CCCC2)c2ccc(S(=O)(=O)CCCO)c(Cl)c2)[nH]c1=O (centres unmarked)",
    "pEC50": "5.52 to 6.30"
  },
  {
    "COMPOUND": "CC(C)c1ccc(/C(=C\\[C@H]2CCC(=O)N2C)c2ccc(Cl)c(=O)[nH]2)cc1",
    "pEC50": "6.30 to 8.00"
  },
  {
    "COMPOUND": "CSc1ccc(/C(=C\\C2CN(C(C)=O)C2)c2ccc(C3CC3)c(=O)[nH]2)cc1",
    "pEC50": "5.52 to 6.30"
  },
  {
    "COMPOUND": "O=C1CC[C@H](CC(c2ccc(C(F)(F)F)cc2)c2ccc(C3CC3)c(=O)[nH]2)N1 (single isomer, unassigned) [Example 4-249]",
    "pEC50": "5.00 to 5.52"
  },
  {
    "COMPOUND": "CCNCCCOc1ccc(/C(=C\\C2CCCC2)c2ccc(C3CC3)c(=O)[nH]2)cc1Cl",
    "pEC50": "5.52 to 6.30"
  },
  {
    "COMPOUND": "CC(C)(C)c1ccc(C(C[C@@H]2CCC(=O)N2)c2ccc(Cl)c(=O)[nH]2)cc1 (single isomer, unassigned) [Example 4-76]",
    "pEC50": "5.00 to 5.52"
  },
  {
    "COMPOUND": "Cc1cc(/C(=C\\[C@H]2CCC(=O)N2)c2ccc(C3CC3)c(=O)[nH]2)ccc1Cl",
    "pEC50": "6.30 to 8.00"
  },
  {
    "COMPOUND": "O=c1[nH]c(/C(=C/C2CCCC2)c2ccc(S(=O)(=O)CCCO)cc2)ccc1C(F)(F)F",
    "pEC50": "5.52 to 6.30"
  },
  {
    "COMPOUND": "CS(=O)(=O)c1ccc(C/C(=C\\C2CCOCC2)c2ccc(Cl)c(=O)[nH]2)cc1",
    "pEC50": "5.00 to 5.52"
  },
  {
    "COMPOUND": "CN(CCO)S(=O)(=O)c1ccc(/C(=C\\[C@H]2CCC(=O)N2)c2ccc(C3CC3)c(=O)[nH]2)cc1",
    "pEC50": "6.30 to 8.00"
  },
  {
    "COMPOUND": "CS(=O)(=O)c1ccc(/C(=C\\[C@H]2CCC(=O)C2)c2ccc(C3CC3)c(=O)[nH]2)cc1Cl",
    "pEC50": "6.30 to 8.00"
  },
  {
    "COMPOUND": "CCN(CC)CCCCc1ccc(/C(=C\\C2CCCC2)c2ccc(C(F)(F)F)c(=O)[nH]2)cc1",
    "pEC50": "5.52 to 6.30"
  },
  {
    "COMPOUND": "O=C1CC[C@H](CC(c2ccc(C(F)F)c(Cl)c2)c2ccc(C3CC3)c(=O)[nH]2)N1 (single isomer, unassigned) [Example 4-226]",
    "pEC50": "5.00 to 5.52"
  },
  {
    "COMPOUND": "CN1CCN(S(=O)(=O)c2ccc(/C(=C\\[C@H]3CCC(=O)N3)c3ccc(Cl)c(=O)[nH]3)cc2)CC1",
    "pEC50": "5.52 to 6.30"
  },
  {
    "COMPOUND": "Cc1cc(C(C[C@H]2CCC(=O)N2)c2ccc(C3CC3)c(=O)[nH]2)ccc1F (single isomer, unassigned) [Example 4-224]",
    "pEC50": "5.00 to 5.52"
  },
  {
    "COMPOUND": "CS(=O)(=O)Nc1ccc(/C(=C\\[C@H]2CCC(=O)N2)c2ccc(Cl)c(=O)[nH]2)cc1",
    "pEC50": "5.52 to 6.30"
  },
  {
    "COMPOUND": "CC(C)(C)c1ccc(/C(=C\\[C@H]2CCC(=O)N2)c2ccc(Br)c(=O)[nH]2)cc1",
    "pEC50": "6.30 to 8.00"
  },
  {
    "COMPOUND": "CN1CCN(S(=O)(=O)c2ccc(/C(=C\\C3CCCC3)c3ccc(Cl)c(=O)[nH]3)cc2)CC1",
    "pEC50": "5.52 to 6.30"
  },
  {
    "COMPOUND": "O=C1CC[C@H](/C=C(\\c2ccc(CCCCO)cc2)c2ccc(Cl)c(=O)[nH]2)N1",
    "pEC50": "5.52 to 6.30"
  },
  {
    "COMPOUND": "O=C1CC[C@H](/C=C(/c2ccc(C3CC3)c(=O)[nH]2)c2ccc(C(F)(F)F)cc2C(F)(F)F)N1",
    "pEC50": "5.00 to 5.52"
  },
  {
    "COMPOUND": "O=C1CC[C@H](/C=C(\\c2ccc(S(=O)(=O)C3CC3)c(Cl)c2)c2ccc(Cl)c(=O)[nH]2)N1",
    "pEC50": "6.30 to 8.00"
  },
  {
    "COMPOUND": "O=C1CC[C@H](CC(c2ccc3c(c2)CCO3)c2ccc(C3CC3)c(=O)[nH]2)N1 (single isomer, unassigned)",
    "pEC50": "5.52 to 6.30"
  }
]
